This listing pairs molecules with measured LD50 at 72 h.
- METHOD_DESCRIPTION: in vivo
- SETUP_CONDITIONS: mouse, po
PROPERTY_LABEL: LD50 at 72 h

In [3]: df
Out[3]:
                    structure_string  recorded_value
0       CCCCc1ccc(C(=O)c2ccccc2I)cc1   > 10000 mg/kg
1  CCCCc1ccc(C(=O)c2ccc(CCCC)cc2)cc1   > 10000 mg/kg
2      CCCCCc1ccc(C(=O)c2ccccc2I)cc1   > 10000 mg/kg
